Assign ED100 to each entry below.
- System: Rattus norvegicus
- protocolSummary: Ulcerogenic effect after oral administration (intestinal ulcer)
- Format: functional

Please go through the list and note ED100 for each molecule.
1. CN1C(C(=O)Nc2ccccn2)=C(O)c2ccccc2S1(=O)=O
2. CCC(=O)N[C@@H](CC)c1nc2c(C(F)(F)F)cccc2c(O)c1C(=O)Nc1nccs1
3. O=C(Nc1nccs1)c1c(C(Cl)Cl)nc2c(C(F)(F)F)cccc2c1O
4. CCC(=O)OC(CC)c1nc2c(C(F)(F)F)cccc2c(O)c1C(=O)Nc1nccs1 (stereo in doubt; 102)

-- reply
1. 20 mg/kg
2. >100 mg/kg
3. >500 mg/kg
4. >250 mg/kg
